Molecular target: T1, human soluble urokinase plasminogen activator receptor (suPAR) (human, UniProt Q03405 23-303, limits assumed)
T1 construct: Target antigen of the off-rate screen; also called hsuPAR; human suPAR
T1 sequence (Q03405 23-303 limits assumed): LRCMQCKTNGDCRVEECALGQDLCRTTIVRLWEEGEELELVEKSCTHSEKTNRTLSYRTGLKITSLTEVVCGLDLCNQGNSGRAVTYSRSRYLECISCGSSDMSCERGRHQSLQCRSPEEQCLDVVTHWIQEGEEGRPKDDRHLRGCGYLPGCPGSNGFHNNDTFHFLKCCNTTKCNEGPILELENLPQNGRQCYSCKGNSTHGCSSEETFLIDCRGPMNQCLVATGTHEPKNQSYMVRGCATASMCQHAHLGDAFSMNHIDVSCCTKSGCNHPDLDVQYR
Experiment: off-rate (kdis) screen of scFv clones, biosensor (Octet)
readout_kind: koff (s⁻¹)
Record the value in s⁻¹, omitting the unit from your answer.

Some binders with recorded koff:
suPAR_DB01_A12 (scFv, V domains shown, screened as scFv) VH: QVQLVQSGAEVKKPGASVKVSCKASGYTFTGYYMHWVRQAPGQGLEWMGWIDPEGGNTIYAQKFQGRVTMTRDTSTSTVYMELSSLRSEDTAVYYCARGYDVDWFVYWGQGTLVTVSS VL: DIQMTQSPSSLSASVGDRVTITCSARSSVSYMYWYQQKPGKAPKLLIYRTSNLASGVPSRFSGSGSGTDFTLTISSLQPEDFATYYCQQYHSYPPTFGGGTKVEIK :: 0.00128
suPAR_DB01_E11 (scFv, V domains shown, screened as scFv) VH: QVQLVQSGAEVKKPGASVKVSCKASGYTFTNYYMHWVRQAPGQGLEWMGWIDHENGSTIYAQKFQGRVTMTRDTSTSTVYMELSSLRSEDTAVYYCARGYDVDWFVYWGQGTLVTVSS VL: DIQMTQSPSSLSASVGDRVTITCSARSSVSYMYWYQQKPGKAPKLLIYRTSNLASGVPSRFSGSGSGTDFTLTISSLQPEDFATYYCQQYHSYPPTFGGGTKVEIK :: 0.000638
suPAR_DB01_E03 (scFv, V domains shown, screened as scFv) VH: QVQLVQSGAEVKKPGASVKVSCKASGYTFTDYYMHWVRQAPGQGLEWMGWIDHENGNTSYAQKFQGRVTMTRDTSTSTVYMELSSLRSEDTAVYYCARGYDVDWFVYWGQGTLVTVSS VL: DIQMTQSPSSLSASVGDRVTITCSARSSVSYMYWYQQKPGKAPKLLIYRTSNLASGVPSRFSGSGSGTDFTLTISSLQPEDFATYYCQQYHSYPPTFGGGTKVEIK :: 0.00402

// suPAR_DB01_A02 (scFv, V domains shown, screened as scFv) VH: EVQLEESGAELVRPGALVKLSCKASGFNIKDYYIHWVKQRPEQGLEWIGWIDHENGNTIYDPKFQGKASITLDTSSNTAYLQLNSLTSEDTAVYYCARGYDVDWFVYWGQGTLVTVSS VL: QIVLTQSPAIMSASPGEKVTIYCSARSSVSYMYWYQQKPGSSPKPWIYRTSNLASGVPARFSGSGSGTSYSLTISSMEAEDAATYYCQQYHSYPPTFGGGTKLEIK : koff value = 3.54e-07

suPAR_DB01_D12 (scFv, V domains shown, screened as scFv) VH: QVQLVQSGAEVKKPGASVKVSCKASGYTFTSYYMHWVRQAPGQGLEWMGWIDPENGSTIYDQKFQGRVTMTRDTSTSTVYMELSSLRSEDTAVYYCARGYDVDWFVYWGQGTLVTVSS VL: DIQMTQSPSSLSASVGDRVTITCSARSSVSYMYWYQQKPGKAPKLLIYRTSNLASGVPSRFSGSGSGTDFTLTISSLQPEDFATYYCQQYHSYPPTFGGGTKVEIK yielded koff of 0.00382
